molecular target: Human 5-HT6 receptor (Homo sapiens); test: Nova Screen binding assay for human 5-HT6 receptor ([3H]LSD); conditions: Human recombinant receptor expressed in HEK-293 cells; [3H]LSD 1.5 nM; 60 minutes at 37° C.
OUTCOME_MEASURE: pKi
Note on pKi: it is the negative log10 of concentration, concentration in mol/L.

Please review the following examples before continuing.
COc1ccc2c(c1)c1c(n2S(=O)(=O)c2ccc(C)cc2)CCC(N(C)C)C1 (stereo not shown)	8.23
CC(C)c1ccc(S(=O)(=O)n2c3c(c4cc(F)ccc42)CC(N(C)C)CC3)cc1 (stereo not shown)	7.81
COc1ccc2c(c1)c1c(n2S(=O)(=O)c2ccccc2)CCC(N(C)C)C1 (stereo not shown)	8.26
CN(C)C1CCc2c(c3cc(Br)ccc3n2S(=O)(=O)c2ccc(F)cc2)C1 (stereo not shown)	8.03
CSc1ccc2c(c1)c1c(n2S(=O)(=O)c2ccc(C)cc2)CCC(N(C)C)C1 (stereo not shown)	7.86

Identify measured pKi associated with CN(C)C1CCc2c(c3cc(F)ccc3n2S(=O)(=O)c2ccccc2)C1 (stereo not shown)
7.80

Query pKi for CSc1ccc2c(c1)c1c(n2S(=O)(=O)c2ccc(F)cc2)CCC(N(C)C)C1 (stereo not shown)
7.60

Please supply the value of reported pKi for the item COc1ccc2c(c1)c1c(n2S(=O)(=O)c2ccc(Br)cc2)CCC(N(C)C)C1 (stereo not shown)
7.82

Annotate the compound CN(C)C1CCc2c(c3ccccc3n2S(=O)(=O)c2ccc(F)cc2)C1 (stereo not shown) with its measured pKi.
7.90

Look up and state reported pKi for Cc1ccc(S(=O)(=O)n2c3c(c4cc(F)ccc42)CC(N(C)C)CC3)cc1 (stereo not shown)
7.49

Using known records, supply pKi for CN(C)C1CCc2c(c3cc(F)ccc3n2S(=O)(=O)c2ccc(F)cc2)C1 (stereo not shown)
7.48

Input COc1ccc2c(c1)c1c(n2S(=O)(=O)c2ccc(F)cc2)CCC(N(C)C)C1 (stereo not shown) , output reported pKi.
7.61

Supply reported pKi belonging to this compound: CN(C)C1CCc2c(c3cc(F)ccc3n2S(=O)(=O)c2ccc(Br)cc2)C1 (stereo not shown)
7.36

====

Target: Human 5-HT6 receptor (Homo sapiens, UniProt P50406)
Sequence (P50406 whole entry): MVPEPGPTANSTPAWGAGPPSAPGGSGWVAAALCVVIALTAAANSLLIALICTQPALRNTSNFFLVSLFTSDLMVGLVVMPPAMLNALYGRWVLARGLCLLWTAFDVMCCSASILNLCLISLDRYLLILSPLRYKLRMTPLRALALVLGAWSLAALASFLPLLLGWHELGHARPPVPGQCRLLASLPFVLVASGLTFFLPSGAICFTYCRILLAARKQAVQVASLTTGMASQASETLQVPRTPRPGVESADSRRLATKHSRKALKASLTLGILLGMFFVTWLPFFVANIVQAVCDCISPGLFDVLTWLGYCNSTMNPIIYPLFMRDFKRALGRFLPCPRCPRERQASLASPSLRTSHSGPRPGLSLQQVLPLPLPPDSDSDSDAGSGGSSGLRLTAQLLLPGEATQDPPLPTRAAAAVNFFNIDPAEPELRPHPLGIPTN
Assay: Nova Screen binding assay for human 5-HT6 receptor ([3H]LSD)
Settings: Human recombinant receptor expressed in HEK-293 cells; [3H]LSD 1.5 nM; 60 minutes at 37° C.
Experimental: Nova Screen Binding Assay for Human 5-HT6 Receptor Pharmacological data Compounds can be tested according to the following the procedures. Receptor source: Human recombinant expressed in HEK-293 cells Radioligand: [^3H]LSD (60-80 Ci/mmol) Final ligand concentration—[1.5 nM] Non-specific determinant: Methiothepin mesylate—[0.1 μM] Reference compound: Methiothepin mesylate Positive control: Methiothepin mesylate […]
OUTCOME_MEASURE: IC50 (nM)
Give just the numeric value; nM need not be written.

Solved entries (count: 3):
COc1ccc2c(c1)c1c(n2S(=O)(=O)c2ccccc2)CCC(N(C)C)C1 (stereo not shown)	10.8
CN(C)C1CCc2c(c3cc(F)ccc3n2S(=O)(=O)c2ccccc2)C1 (stereo not shown)	30.5
CSc1ccc2c(c1)c1c(n2S(=O)(=O)c2ccc(C)cc2)CCC(N(C)C)C1 (stereo not shown)	26.1

Specify measured IC50 for COc1ccc2c(c1)c1c(n2S(=O)(=O)c2ccc(F)cc2)CCC(N(C)C)C1 (stereo not shown) .
52.3
